Tested on: SR leukemia
Assay Text: NCI tumour cell line growth inhibition, 48 h; in the data active means GI50 below about 0.43 µM; inactive means the rest
Permitted responses: class 1 = active, class 0 = inactive

Lab log entry: "CCn1c(CN2CCN(Cc3ccccc3)CC2)nc2cc(NC(=O)c3cccs3)ccc21" — outcome as called in the assay?
class 0

Lookup "O=c1c2ccccc2n(C[C@H]2CO2)c2ccccc12"
class 1

* * *

System: M14 melanoma
Assay Text: NCI tumour cell line growth inhibition, 48 h
TGI by entry:

Would you mind telling me what TGI value was observed for "Cc1ccc(N=Nc2ccc(O)c(CN(C)C)c2)cc1C" ?
81.1 µM

* * *

Test system: HT29 colon
Assay Text: NCI tumour cell line growth inhibition, 48 h
Outcome Measure: TGI (µM)
Number in µM, nothing else.

Would you mind telling me what TGI value was observed for "Cc1cc(S(N)(=O)=O)c(S/C(CC(C)C)=N\Nc2ccc([N+](=O)[O-])cc2)cc1Cl" ?
15.3

Lookup "Oc1cc(Br)cc2cccnc12"
35

Lookup COC(=O)c1ccccc1CC1Cc2ccc3c(c2C1)CCC3 (configuration not stated)
96.8

Lookup COc1cc(C)c(Cl)cc1C1=NN(c2ccc(S(N)(=O)=O)cc2)C(/C=C/c2ccccc2)C1 (configuration not stated)
4.07

Lookup "O=C(CNc1ccc2c(c1)C(=O)c1ccccc1C2=O)Nc1ccc2c(c1)C(=O)c1ccccc1C2=O"
1.69

Where these numbers come from: PubChem BioAssay (NCI)
